So I've got a bunch of compounds here, and I need their T/C values.
Test system: B6C3F1 mice, B16 melanoma ip, median survival T/C
Assay: NCI In Vivo Anticancer Drug Screen. Data for tumor model B16 Melanoma (intraperitoneal) in B6C3F1 mice
Details: endpoint: median survival time; dose: 400.0 mg/kg/injection; schedule: Q01DX009 (ip); vehicle: saline with Tween-80; higher = longer survival
Toxic doses and inconclusive results are not listed. Where a SMILES comes first, the peptide text is derived from it.

Fill in T/C for `C[Si](C)(C)n1nnn(-c2ccccc2)c1=O` tested with B6C3F1 mice, B16 melanoma ip, median survival T/C.
95 % of control

Fill in T/C for CN(C)CCC(O)c1c[nH]c2ccccc12 (stereo not given) tested with B6C3F1 mice, B16 melanoma ip, median survival T/C.
94 % of control

Fill in T/C for `CCOC(=O)NC(N)=O` tested with B6C3F1 mice, B16 melanoma ip, median survival T/C.
105 % of control

Fill in T/C for CC(C(C(=O)N1CCCCC1)N1CCCCC1)N1CCCCC1 (stereo not given) tested with B6C3F1 mice, B16 melanoma ip, median survival T/C.
103 % of control

Fill in T/C for `CC(=O)Oc1[nH]c(=O)c2cccc3c2c1CCC3` tested with B6C3F1 mice, B16 melanoma ip, median survival T/C.
120 % of control

Fill in T/C for NC(Cc1ccc(O)cc1)C(=O)O (stereo not given) tested with B6C3F1 mice, B16 melanoma ip, median survival T/C.
103 % of control

Fill in T/C for `Oc1ccc2ccccc2c1N=Nc1ccc(Cl)cc1` tested with B6C3F1 mice, B16 melanoma ip, median survival T/C.
109 % of control

Fill in T/C for NC(CSSCC(N)C(=O)O)C(=O)O (stereo not given) tested with B6C3F1 mice, B16 melanoma ip, median survival T/C.
117 % of control

Fill in T/C for `CN1C(=O)NC(c2ccc(Cl)cc2)(c2ccc(Cl)cc2)C1=O` tested with B6C3F1 mice, B16 melanoma ip, median survival T/C.
99 % of control

Fill in T/C for `[O-][n+]1c(CN2CCCCC2)nc2cccc3c2c1-c1ccccc1-3` tested with B6C3F1 mice, B16 melanoma ip, median survival T/C.
103 % of control

Fill in T/C for CC1(C)OC1CS(=O)c1ccccc1 (stereo not given) tested with B6C3F1 mice, B16 melanoma ip, median survival T/C.
89 % of control

Fill in T/C for CC(=O)NC(Cc1ccc(F)cc1)C(=O)O (stereo not given) tested with B6C3F1 mice, B16 melanoma ip, median survival T/C.
111 % of control

Fill in T/C for CC1(C)OCC2OC=CC(=O)C2O1 (stereo not given) tested with B6C3F1 mice, B16 melanoma ip, median survival T/C.
95 % of control

Fill in T/C for O=C(O)CNC(=O)CNC(=O)C(Cc1cnc[nH]1)NC(=O)OCc1ccccc1 (stereo not given) (HELM PEPTIDE1{[O=C(OCc1ccccc1)[*:2]].[O=C(C(Cc1c[nH]cn1)N[*:1])[*:2]].G.G}$$$$V2.0) tested with B6C3F1 mice, B16 melanoma ip, median survival T/C.
97 % of control

Fill in T/C for `C(C#CCN1CCOCC1)#CCN1CCOCC1` tested with B6C3F1 mice, B16 melanoma ip, median survival T/C.
86 % of control

Fill in T/C for `Cn1ccc(=Nc2ccc(NC(=O)c3ccc(N=c4ccn(C)c5ccc([N+](=O)[O-])cc45)cc3[N+](=O)[O-])cc2)cc1` tested with B6C3F1 mice, B16 melanoma ip, median survival T/C.
96 % of control

Fill in T/C for C=COC(=O)C(Cc1ccccc1)NC(=O)OCc1ccccc1 (stereo not given) tested with B6C3F1 mice, B16 melanoma ip, median survival T/C.
90 % of control

Fill in T/C for COCCCNC1=C(C#N)C(=O)NC(c2cccc([N+](=O)[O-])c2)S1 (stereo not given) tested with B6C3F1 mice, B16 melanoma ip, median survival T/C.
87 % of control

Fill in T/C for C/C(=N\O)C(O)c1ccccc1 (stereo not given) tested with B6C3F1 mice, B16 melanoma ip, median survival T/C.
92 % of control

Fill in T/C for CCOC(=O)C1(c2ccccc2)C(=O)Oc2ccccc21 (stereo not given) tested with B6C3F1 mice, B16 melanoma ip, median survival T/C.
91 % of control

Fill in T/C for CC(=O)OCC1(C)NC(=O)c2ccccc2O1 (stereo not given) tested with B6C3F1 mice, B16 melanoma ip, median survival T/C.
86 % of control

Fill in T/C for `O=S(=O)(c1ccccc1)N1CN2CCN(C2)C1` tested with B6C3F1 mice, B16 melanoma ip, median survival T/C.
122 % of control

Fill in T/C for `Cn1cnc([N+](=O)[O-])c1SCC(=O)O` tested with B6C3F1 mice, B16 melanoma ip, median survival T/C.
97 % of control

Fill in T/C for O=C(NC(CSSCC(NC(=O)c1ccccc1)C(=O)O)C(=O)O)c1ccccc1 (stereo not given) tested with B6C3F1 mice, B16 melanoma ip, median survival T/C.
100 % of control

Fill in T/C for O=C(O)C(Cc1ccc(O)cc1)NS(=O)(=O)Cc1ccccc1 (stereo not given) tested with B6C3F1 mice, B16 melanoma ip, median survival T/C.
100 % of control
